Biological target: androgen receptor (AR-LBD) (Rattus norvegicus)
Construct: 5 μL of 2×AR-LBD/Fluoromone AL Red Complex contained in the kit; purchased Invitrogen
Sequence (P15207 651-882 limits assumed): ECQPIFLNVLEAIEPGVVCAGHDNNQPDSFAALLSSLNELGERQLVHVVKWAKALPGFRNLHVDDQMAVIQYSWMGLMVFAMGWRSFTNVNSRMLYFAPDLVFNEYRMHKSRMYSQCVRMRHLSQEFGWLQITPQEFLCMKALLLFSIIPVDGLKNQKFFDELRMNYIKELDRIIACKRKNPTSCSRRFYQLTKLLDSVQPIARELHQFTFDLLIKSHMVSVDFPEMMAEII
Test: Evaluation of androgen receptor affinity (PolarScreen Androgen Receptor Competitor Assay Kit, Red; fluorescence polarization)
Details: 22° C. for 5 hours, relative to binding rate of 1 μM DHT, read-out: AR affinity (pEC50) (converted)
MEASURED QUANTITY: EC50 (nM)

Cc1sc(N(Cc2ccc(OCC(F)F)cc2)c2ccc(C#N)cc2)nc1C(=O)NS(C)(=O)=O
63.1
Cc1sc(N(Cc2cccc3ccccc23)c2ccc(C#N)cc2)nc1C(=O)NS(C)(=O)=O
50.1
CS(=O)(=O)NC(=O)c1nc(N(Cc2ccc(OC(F)F)cc2)c2ccc(C#N)cc2)sc1Cl
63.1
